Data credit: patent US20060154993A1

Assay: CoQ10 levels in seminal plasma and sperm cells by HPLC-EC, idiopathic asthenospermia patients on CoQ10
Type: in vivo, human
Details: male, human, seminal plasma, po; after 6 months CoQ10 200 mg/day twice daily orally; baseline 42.0 ± 5.1; mean ± SD; P<0.005
measure name: concentration at 6 months
State the value, then name its unit.

Identify measured concentration at 6 months corresponding to COC1=C(OC)C(=O)C(C/C=C(\C)CC/C=C(\C)CC/C=C(\C)CC/C=C(\C)CC/C=C(\C)CC/C=C(\C)CC/C=C(\C)CC/C=C(\C)CC/C=C(\C)CCC=C(C)C)=C(C)C1=O 127 ng/mL
